src = ChEMBL document CHEMBL1142672

Biological target: 3',5'-cyclic-AMP phosphodiesterase 4D (Homo sapiens)
Sequence (Q08499 whole entry): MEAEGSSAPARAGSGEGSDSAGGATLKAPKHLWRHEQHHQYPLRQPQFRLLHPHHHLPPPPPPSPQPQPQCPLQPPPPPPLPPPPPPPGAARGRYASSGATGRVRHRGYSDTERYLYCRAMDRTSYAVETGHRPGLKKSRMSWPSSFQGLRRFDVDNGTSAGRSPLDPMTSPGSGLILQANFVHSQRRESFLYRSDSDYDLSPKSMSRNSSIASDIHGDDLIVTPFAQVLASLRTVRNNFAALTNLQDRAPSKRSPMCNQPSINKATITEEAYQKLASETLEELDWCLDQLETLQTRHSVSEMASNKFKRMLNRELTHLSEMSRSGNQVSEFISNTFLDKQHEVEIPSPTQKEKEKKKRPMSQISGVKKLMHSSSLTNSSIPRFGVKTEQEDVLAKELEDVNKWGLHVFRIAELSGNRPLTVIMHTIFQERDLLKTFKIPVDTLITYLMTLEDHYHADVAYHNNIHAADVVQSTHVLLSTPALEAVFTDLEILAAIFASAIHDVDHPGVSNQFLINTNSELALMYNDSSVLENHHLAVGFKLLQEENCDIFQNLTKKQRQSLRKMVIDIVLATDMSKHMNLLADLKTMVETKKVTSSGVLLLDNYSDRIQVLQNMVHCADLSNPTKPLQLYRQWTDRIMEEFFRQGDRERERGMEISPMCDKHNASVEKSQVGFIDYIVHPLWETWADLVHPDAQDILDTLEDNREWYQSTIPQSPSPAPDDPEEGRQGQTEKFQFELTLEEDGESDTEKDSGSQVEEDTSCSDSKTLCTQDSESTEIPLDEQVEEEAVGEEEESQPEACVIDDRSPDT
Assay: Inhibition of [3H]cAMP binding to recombinant human Phosphodiesterase 4D3 (PDE4D3) in baculovirus expression system
compounds and their reported Ki
Only the number, expressed in nM, is required.

>  <MOLECULE>
COc1ccc(Cn2cnc(N)c3nc(C(C)(C)COc4ccc(C(N)=O)cc4)nc2-3)cc1OC1CCCC1

>  <EXPERIMENTAL RESULT>
8

$$$$

Task: What value of Ki has been recorded for this entry: COc1ccc(Cn2cnc(N)c3nc(C(C)(C)COc4ccc(C(=O)O)cc4)nc2-3)cc1OC1CCCC1
Result: 4300

Task: Another compound to check: COC(=O)c1ccc(OCC(C)(C)c2nc3c(N)ncn(Cc4ccc(OC)c(OC5CCCC5)c4)c-3n2)cc1
Result: 3

Task: Another compound to check: CCNc1ncn(Cc2ccc(OC)c(OC3CCCC3)c2)c2nc(C(C)C)nc1-2
Result: 172

Task: Another compound to check: COc1cccc(OC[C@H](C)c2nc3c(N)ncn(Cc4ccc(OC)c(OC5CCCC5)c4)c-3n2)c1
Result: 493
